Reported koff values are given for each entry in this list.
target: T1, cynomolgus monkey (cyno) TSLP (cynomolgus monkey, UniProt A0A7N9CAT7 29-159); test: SPR
T1 construct: also called cTSLP; cynomolgus TSLP
T1 sequence (A0A7N9CAT7 entry or part of it): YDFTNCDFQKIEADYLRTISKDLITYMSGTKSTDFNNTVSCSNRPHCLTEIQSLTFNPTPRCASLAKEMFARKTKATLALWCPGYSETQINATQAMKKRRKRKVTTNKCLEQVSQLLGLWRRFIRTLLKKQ
All answers are understood in s⁻¹, so give the number only.

BDG38.140 (antibody, V domains shown, IgG1) VH: QMQLVESGGGVVQPGRSLTLSCAASGFEFRTYGMHWVRQAPGKGLEWVGVIWDDGSNTHYADSVKGRFTITRDNSKNTLNLQMNSLRVEDTAVYYCARAPQWYLTAEAFDLWGQGTMVTVSS VL: SYILTQPPSVSVAPGETATITCGGNLIGAKLVHWYQQKPGQAPVLVIYDDSDRPSRIPERFSGSNIGNTATLTIEDVEAGDEADYYCQVWDYSANHMVFGGGTKLTVL    2.78e-06

Exercise: Could you please provide reported koff for BDG38.090 (antibody, V domains shown, IgG1) VH: QMQLVESGGGVVQPGRSLTLSCAASGFEFRTYGMHWVRQAPGKGLEWLGVIWDDGSNTHYADSVKGRFTITRDNSKNTLNLQMNSLRVEDTAVYYCARAPQWYLTAEAFDLWGQGTMVTVSS VL: SYILTQPPSVSVAPGETARITCGGNLIGARLVHWYQQKPGQAPVLVVYDDSDRPSRIPERFSGSNIGNTATLTIEDVEEGDEADYYCQVWDYYSDHMVFGGGTKLTVL ? Thanks!
Key: 5.53e-05

Exercise: Could you please provide reported koff for BDG38.094 (antibody, V domains shown, IgG1) VH: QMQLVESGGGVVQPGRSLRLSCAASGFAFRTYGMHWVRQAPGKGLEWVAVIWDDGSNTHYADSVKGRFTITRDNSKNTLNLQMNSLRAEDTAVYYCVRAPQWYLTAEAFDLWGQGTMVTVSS VL: SYVLTQPPSVSVAPGETASITCGGNLIGAYLVHWYQQKPGQAPLLVIYDDVDRPARIPERFSGSNSGNTATLTISRVEAGDEADYYCQVWDHNSNHMVFGGGTKLTVL ? Thanks!
Key: 3.18e-05

Exercise: Could you please provide reported koff for BDG38.132 (antibody, V domains shown, IgG1) VH: QMQLVESGGGVVQPGRSLRLSCAASGFEFRTYGMHWVRQAPGKGLEWVGVIWDDGSNTHYADSVKGRFTITRDNSKNTLNLQMNSLRAEDTAVYYCVRAPQWYLTAEAFDLWGQGTMVTVSS VL: SYILTQPPSVSVAPGETATITCGGNLIGARLVHWYQQKPGQAPVLVIYDDSDRPSRIPERFSGSNIGNTATLTISRVEAGDEADYYCQVWDYSSDHMVFGGGTKLTVL ? Thanks!
Key: 2.19e-06

Reference source: patent US20240059769A1
